# Experiment summary: Therapeutic index, ratio of CC50 for cytotoxicity in African green monkey VeroE6 cells incubated for 48 hrs by neutral red uptake assay to EC50 for antiviral activity against MERS-CoV infected in African green monkey Vero E6 cells incubated for 48 hrs by neutral red uptake assay
# Assay type: toxicity, cell-based, Vero C1008
# Test conditions: read-out: Ratio CC50/EC50
Reported metric: selectivity ratio at 48 h

*Q* For CN(C)Cc1c[nH]c2ccc(OCc3ccccc3)cc12 , what is its reported selectivity ratio at 48 h?
*A* 25.1

* * *

# Experiment summary: Cytotoxicity in African green monkey Vero E6 cells incubated for 48 hrs by neutral red uptake assay
# Type: cell-based, Vero C1008
# Test conditions: chlorocebus sabaeus
Reported metric: CC50 at 48 h (µM)
The response must be a number in µM with no trailing unit.

*Q* For O=C(OCc1ccccc1)N1c2ccccc2CC1CO (stereo not drawn) , what is its reported CC50 at 48 h?
*A* 460

*Q* For CN(C)Cc1c[nH]c2ccc(OCc3ccccc3)cc12 , what is its reported CC50 at 48 h?
*A* 805

*Q* For CCc1cccc2c3c([nH]c12)C(CC)(CC(=O)O)OCC3 (stereo not drawn) , what is its reported CC50 at 48 h?
*A* 570
